Reported TGI values for a set of compounds
System: MDA-MB-435
assay.comment: NCI tumour cell line growth inhibition, 48 h

>  <molecule>
CC(C)(C)OC(=O)N(CCCCNCc1ccc2ccccc2c1)CCCNCc1ccc2ccccc2c1

>  <TGI>
3.47 µM

$$$$
>  <molecule>
CN(C)CCN1C(=O)c2cccc3cccc(c23)C1=O

>  <TGI>
> 25 µM

$$$$
>  <molecule>
O=C(CSC1=NNC2(C(=O)N1)c1ccccc1-c1ccccc12)NC(=S)Nc1ccccc1

>  <TGI>
> 10 µM

$$$$

====

Measured GI50 (MDA-MB-435)

>  <molecule>
COc1cc2c3c(n(CCCN=[N+]=[N-])c(=O)c2cc1OC)-c1ccc(N(C)C)cc1C3=O

>  <target.entity>
MDA-MB-435

>  <GI50>
> 100000 nM

$$$$
>  <molecule>
CCN(CC)CCOc1ccc(C(=O)/C=C\c2ccc(Cl)cc2Cl)cc1

>  <target.entity>
MDA-MB-435

>  <GI50>
2560 nM

$$$$
>  <molecule>
COC(=O)[C@@H](C)C[C@H](Cc1ccccc1)NC(=O)c1csc([C@@H](C[C@H](C(C)C)N(C)C(=O)[C@H](C)NC(=O)[C@H]2CCCCN2C)OC(C)=O)n1

>  <target.entity>
MDA-MB-435

>  <GI50>
121 nM

$$$$
>  <molecule>
CCCNc1nc2ccccc2c2c1S(=O)(=O)c1ccc(Cl)cc1C2=O

>  <target.entity>
MDA-MB-435

>  <GI50>
1110 nM

$$$$
>  <molecule>
CN(/N=N/c1nc(OCc2ccccc2)c2[nH]cnc2n1)C(=O)Oc1ccc([N+](=O)[O-])cc1

>  <target.entity>
MDA-MB-435

>  <GI50>
12400 nM

$$$$

====

Test system: MDA-MB-231 breast
assay.comment: NCI tumour cell line growth inhibition, 48 h

>  <compound>
CC1(C)[C@H]2Cc3cc(-c4cc5c(cn4)[C@@H]4C[C@H]([C@@H]5[C@@H]5c6cc(-c7cc8c(cn7)[C@@H]7C[C@H](C8)C7(C)C)ncc6[C@@H]6C[C@H]5C6(C)C)C4(C)C)ncc3[C@@H]1C2

>  <target.entity>
MDA-MB-231 breast

>  <TGI>
> 100 µM

$$$$
>  <compound>
COC(=O)c1c(-c2ccccc2)c2sc3ccccc3n2c1N

>  <target.entity>
MDA-MB-231 breast

>  <TGI>
> 100 µM

$$$$
>  <compound>
CC(=O)Oc1ccc(C(c2ccc(OC(C)=O)cc2)c2ccccn2)cc1

>  <target.entity>
MDA-MB-231 breast

>  <TGI>
> 100 µM

$$$$
>  <compound>
Cc1ccc(S(=O)(=O)NNC2Oc3cc4c(cc3C(c3ccccc3O)C2C)OCO4)cc1 (stereo not drawn)

>  <target.entity>
MDA-MB-231 breast

>  <TGI>
31.4 µM

$$$$
>  <compound>
COc1ccc(-c2nn(-c3cccc(NC(=O)c4ccc(N5CCOCC5)c(C(F)(F)F)c4)c3)cc2-c2ccncc2)cc1Cl

>  <target.entity>
MDA-MB-231 breast

>  <TGI>
> 50 µM

$$$$
>  <compound>
O=C1c2ccccc2-c2c1c(-c1cccc(Br)c1)nc1ccc3ccccc3c21

>  <target.entity>
MDA-MB-231 breast

>  <TGI>
> 100 µM

$$$$
>  <compound>
O=C1NC2(CCN(CCCC3(c4ccc(F)cc4)OCCO3)CC2)Oc2ccccc21

>  <target.entity>
MDA-MB-231 breast

>  <TGI>
> 100 µM

$$$$
>  <compound>
COC(=O)[C@@H](C)C[C@H](Cc1ccccc1)NC(=O)c1csc([C@@H](C[C@H](C(C)C)N(C)C(=O)[C@H](C)NC(=O)[C@H]2CCCCN2C)OC(C)=O)n1

>  <target.entity>
MDA-MB-231 breast

>  <TGI>
> 25 µM

$$$$

====

Reported TGI values for a set of compounds
System: CCRF-CEM leukemia
assay.comment: NCI tumour cell line growth inhibition, 48 h
result.type: TGI

>  <compound>
O=C1OC(c2ccccc2)=N/C1=C\c1cccc(F)c1

>  <target.entity>
CCRF-CEM leukemia

>  <value.measured>
72.7 µM

$$$$
>  <compound>
CC1OC(OC2C(Oc3cc(O)c4c(c3)O[C@H](c3ccc(O)cc3)CC4=O)OC(CO)C(O)C2O)C(O)C(O)C1O (some centres not stated)

>  <target.entity>
CCRF-CEM leukemia

>  <value.measured>
> 100 µM

$$$$
>  <compound>
O=C(NNC(=O)c1ccccc1O)c1ccc(O)cc1

>  <target.entity>
CCRF-CEM leukemia

>  <value.measured>
> 100 µM

$$$$
>  <compound>
CC1=CC(=O)N(c2c(C)cccc2Cl)C(C)N1 (configuration not stated)

>  <target.entity>
CCRF-CEM leukemia

>  <value.measured>
> 100 µM

$$$$
>  <compound>
Cc1ccc(S(=O)(=O)NCCCSCCSCCCN)cc1

>  <target.entity>
CCRF-CEM leukemia

>  <value.measured>
> 100 µM

$$$$
>  <compound>
O=C1OC(CN2CCOCC2)CN1/N=C/c1ccc([N+](=O)[O-])o1 (configuration not stated)

>  <target.entity>
CCRF-CEM leukemia

>  <value.measured>
> 100 µM

$$$$
>  <compound>
O=c1ccn(C2OC(CN(O)CCC3C(CO)OC(n4ccc(=O)[nH]c4=O)C3O)C(O)C2O)c(=O)[nH]1 (configuration not stated)

>  <target.entity>
CCRF-CEM leukemia

>  <value.measured>
> 100 µM

$$$$
>  <compound>
CCn1c2ccccc2c2cc(C(O)c3cccc4ncccc34)ccc21 (configuration not stated)

>  <target.entity>
CCRF-CEM leukemia

>  <value.measured>
> 100 µM

$$$$
>  <compound>
CCN(CC)CCSCCCNc1c2ccc(Cl)cc2nc2ccc(OC)cc12

>  <target.entity>
CCRF-CEM leukemia

>  <value.measured>
4.72 µM

$$$$
>  <compound>
COC(=O)CCC(=O)NC1C2CC3CC(C2)CC1C3 (configuration not stated)

>  <target.entity>
CCRF-CEM leukemia

>  <value.measured>
> 100 µM

$$$$
>  <compound>
Cc1nc2c(=O)n3c4c(cccc4c2o1)CCC3

>  <target.entity>
CCRF-CEM leukemia

>  <value.measured>
> 100 µM

$$$$
>  <compound>
CC(=O)Oc1ccc(C(c2ccc(OC(C)=O)cc2)c2ccccn2)cc1

>  <target.entity>
CCRF-CEM leukemia

>  <value.measured>
> 100 µM

$$$$

====

Test system: RPMI-8226 leukemia
assay.comment: NCI tumour cell line growth inhibition, 48 h
Reported TGI values for a set of molecules

>  <molecule>
CNC(=O)OCC1C2=C(C(=O)C(C)=C(N)C2=O)N2CC3C(N3C)C12OC (stereo unspecified)

>  <TGI>
> 100 µM

$$$$
>  <molecule>
CCN(CC)CCSCCCNc1c2ccc(Cl)cc2nc2ccc(OC)cc12

>  <TGI>
4.78 µM

$$$$
>  <molecule>
CN(C)C(=S)/N=c1\ss/c(=N\S(=O)(=O)c2ccccc2)n1N(C)C

>  <TGI>
> 100 µM

$$$$
>  <molecule>
Cc1cc(OCc2nnc3n2N=C(c2ccc(Cl)cc2Cl)CS3)ccc1Cl

>  <TGI>
> 100 µM

$$$$
>  <molecule>
COC(=O)c1ccc(NCc2cc(O)ccc2O)cc1

>  <TGI>
34.7 µM

$$$$
>  <molecule>
Cc1cc2c(C)n(Cc3ccc(Cl)cc3Cl)nc2c(C(=O)O)c1C

>  <TGI>
> 100 µM

$$$$

====

System: HCT-116 colon
assay.comment: NCI tumour cell line growth inhibition, 48 h
result.type: TGI

>  <molecule>
S=C1N=C(Cl)/C(=C\c2ccccc2)N1

>  <result.type>
TGI

>  <value.measured>
> 100 µM

$$$$
>  <molecule>
CNCCC=C1c2ccccc2CCc2ccccc21

>  <result.type>
TGI

>  <value.measured>
27.8 µM

$$$$
>  <molecule>
O=C(O)CCSC(=O)Nc1ccc(N=Nc2ccccc2)cc1

>  <result.type>
TGI

>  <value.measured>
> 100 µM

$$$$
>  <molecule>
COc1ccc(OC)c(Nc2nc(-c3c(C)nc4sccn34)cs2)c1

>  <result.type>
TGI

>  <value.measured>
> 100 µM

$$$$
>  <molecule>
C=CCCCc1ccc(C(O)CCCCCCCCCCCC)o1 (stereo unspecified)

>  <result.type>
TGI

>  <value.measured>
28.9 µM

$$$$
>  <molecule>
CCCC[C@H]1CCN2C[C@@H](O)[C@@H](O)[C@H]2[C@@H]1O

>  <result.type>
TGI

>  <value.measured>
> 100 µM

$$$$
>  <molecule>
CC(C)C(NCc1c(O)ccc2c(-c3ccccc3)cc(=O)oc12)C(=O)O (stereo unspecified)

>  <result.type>
TGI

>  <value.measured>
> 100 µM

$$$$
>  <molecule>
CC(C)(C)C1CCC2c3c([nH]c4ccccc34)C3C(=O)N(c4ccc5c(c4)C(=O)c4ccccc4C5=O)C(=O)C3C2C1 (stereo unspecified)

>  <result.type>
TGI

>  <value.measured>
> 100 µM

$$$$
>  <molecule>
S=c1[nH]nc(NNc2ccccc2)n1Nc1ccccc1

>  <result.type>
TGI

>  <value.measured>
> 100 µM

$$$$
>  <molecule>
N#Cc1nc(COCCOCc2ccc(F)cc2)oc1N

>  <result.type>
TGI

>  <value.measured>
> 100 µM

$$$$
>  <molecule>
c1ccc(CC2(c3cc4ccccc4[nH]3)OCCO2)nc1

>  <result.type>
TGI

>  <value.measured>
> 100 µM

$$$$
